Tested on: NCI-H522 lung
experimental protocol: NCI-60 one-dose screen, 48 h
test parameters: 10 µM unless noted
Protocol: Growth inhibition of the NCI-H522 human Non-Small Cell Lung tumor cell line is measured as a screen for anti-cancer activity. Cells are grown in 96 well plates and exposed to the test compound for 48 hours. Compounds are tested at a single concentration, which is 10^-5 M for most compounds. The reported endpoint is percent growth (GI% or GIPRCNT), where numbers from 0 - 100% represent growth inhibition, and numbers from -100% - 0 represent cell death. […]
This is part of a sample that, as a whole, favours compounds with a hit. Of some 83,000 tested, about 20% had one in any assay. Activity calls are given as the source filed them. How the source made its calls: active means growth percent below 10; inactive means the rest.
Assign a class; possible classes are True = active, False = inactive

O=C(N/N=C/c1ccncc1)c1ccccc1Nc1cccc(C(F)(F)F)c1: False
Cn1/c(=N/NC(N)=S)ccc2ccccc21: False
COc1cccc(NC(=O)c2cccc(-c3cc(=O)c4c(OC)c(OC)c(OC)cc4o3)c2)c1: False
Fc1ccc(C2CC(c3cccc(Nc4ccncc4)c3)=NN2c2ccc(Cl)cc2)cc1 (stereo not given): False

Called result for Cc1nc2sc(C(=O)Nc3ccccc3)c(N)c2cc1C(=O)c1ccc(C(F)(F)F)cc1 False

Record request — test call for CC(=O)Nc1ccc(S(=O)(=O)NC2CCCCC2)cc1 False

The reported measurements were obtained from PubChem BioAssay (NCI).
